Taken from patent US6380238B1.

# Tested On: 5-HT2A receptor (Homo sapiens, UniProt P28223)
# Sequence (P28223 whole entry): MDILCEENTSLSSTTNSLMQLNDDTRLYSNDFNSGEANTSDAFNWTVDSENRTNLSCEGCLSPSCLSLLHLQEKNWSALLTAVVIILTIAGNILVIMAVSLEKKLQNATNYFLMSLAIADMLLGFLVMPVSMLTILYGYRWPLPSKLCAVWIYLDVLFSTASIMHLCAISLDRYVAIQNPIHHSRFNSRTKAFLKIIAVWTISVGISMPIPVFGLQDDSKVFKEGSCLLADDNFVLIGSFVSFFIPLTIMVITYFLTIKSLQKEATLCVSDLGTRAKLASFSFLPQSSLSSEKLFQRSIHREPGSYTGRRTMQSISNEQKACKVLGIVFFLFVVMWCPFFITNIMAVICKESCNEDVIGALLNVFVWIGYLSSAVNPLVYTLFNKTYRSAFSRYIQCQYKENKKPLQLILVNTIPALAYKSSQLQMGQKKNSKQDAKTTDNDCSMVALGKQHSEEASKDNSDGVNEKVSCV
# Assay Summary: Functional activity, FLIPR calcium assay in CHO cells expressing human 5-HT2A
# Format: cell-based
# Parameters: expressed in transfected cells; host or cells: CHO cells
Our labelling divides records by EC50 into ranges: class 0: < 1000 nM; class 1: ≥ 1000 nM and < 2000 nM; class 2: ≥ 2000 nM

• C[C@H](N)CN1CCc2cc(F)cc(Cl)c21 = class 2
• Cc1cccc2c1CCN2C[C@H](C)N = class 1
• C[C@H](N)CN1CCc2cc(Br)ccc21 = class 2
• CCc1cccc2c1N(C[C@H](C)N)CC2 = class 2
• C[C@H](N)CN1CCc2cc(Cl)ccc21 = class 1
• C[C@H](N)CN1CCc2cc(F)c(Br)cc21 = class 1
• CSc1ccc2c(c1)N(C[C@H](C)N)CC2 = class 0
• CCSc1ccc2c(c1)N(C[C@H](C)N)CC2 = class 0
• CC(C)Sc1ccc2c(c1)N(C[C@H](C)N)CC2 = class 2
• C[C@H](N)CN1CCc2ccc(Br)cc21 = class 2
• C[C@H](N)CN1CCc2ccc(Cl)c(Cl)c21 = class 1
• CSc1cc2c(cc1F)CCN2CC(C)N (stereo not shown) = class 0
